Measurement description: Solubility assessment of CSP-1103 in organic solvents (qualitative)
Assay type: physicochemical
Cond: ethanol, organic solvent or mixture, thermodynamic from solid, qualitative solubility at 0.1 M; gentle heating if required
Assay readout: solubility

* O=C(O)C1(c2ccc(-c3ccc(Cl)c(Cl)c3)c(F)c2)CC1 | < 100 mM

---

Measurement description: Solubility assessment of CSP-1103 in organic solvents (qualitative)
Type: physicochemical
Cond: acetone, organic solvent or mixture, thermodynamic from solid, qualitative solubility at 0.05 M; gentle heating if required
Assay readout: solubility

* O=C(O)C1(c2ccc(-c3ccc(Cl)c(Cl)c3)c(F)c2)CC1 [CSP-1103] | > 50 mM
